assay remarks: Lipophilicity, log D of the compound
Type: physicochemical
settings: octanol/water
// logD lookup, one value per entry
experimental readout: logD

>>> reported("C[C@@H]1C[C@H]2[C@@H]3CCC4=CC(=O)C=C[C@]4(C)[C@@]3(F)[C@@H](O)C[C@]2(C)[C@H]1C(=O)CO")
2
>>> reported("O=C(O)c1cc(/N=N/c2ccc(S(=O)(=O)Nc3ccccn3)cc2)ccc1O")
0.05
>>> reported("O=C(O)c1cccnc1Nc1cccc(C(F)(F)F)c1")
2.01
